meta.source: ChEMBL document CHEMBL5500426

test name: Cytotoxicity against human HUVEC cells assessed as inhibition of cell growth incubated for 72 hrs by MTT assay
Type: toxicity, cell-based
measured endpoint: IC50 at 72 h (µM)
// units = µM; emit number, no label

# input molecule: Oc1c(-c2cc(C(F)(F)F)n[nH]2)ccc(C#CCCN2CCOCC2)c1-c1ccc(Cl)c(C(F)(F)F)c1 ; wanted: its IC50 at 72 h
16.6

###

test name: Half life in Sprague-Dawley rat at 10 mg/kg,ip administration by LC-MS/MS analysis
Assay type: ADME, organism-based
applied conditions: in vivo
measured endpoint: half-life
Could you kindly put the unit after your number?

What value of half-life has been reported for the following compound? Oc1c(-c2cc(C(F)(F)F)n[nH]2)ccc(C#CCCN2CCOCC2)c1-c1ccc(Cl)c(C(F)(F)F)c1
5.97 h

###

Test system: SK-OV-3
test name: Antiproliferative activity against human SK-OV-3 cells assessed as inhibition of cell growth incubated for 72 hrs by MTT assay
Assay type: functional, cell-based
applied conditions: SK-OV-3, 72 h
measured endpoint: IC50

{"columns": ["molecule", "IC50"],
 "data": [
  ["Cn1nc(C(F)(F)F)cc1-c1ccc(OCc2ccc(Cl)cc2)c(-c2ccc(Cl)c(C(F)(F)F)c2)c1O", "1740 nM"]
]}

Here is the next item to consider.
// IC50 lookup, key: Oc1c(-c2cc(C(F)(F)F)n[nH]2)ccc(C#CCCN2CCOCC2)c1-c1ccc(Cl)c(C(F)(F)F)c1
1250 nM

###

test name: AUC (0 to t) in Sprague-Dawley rat at 2 mg/kg,iv administration by LC-MS/MS analysis
Format: ADME, organism-based
applied conditions: in vivo
measured endpoint: AUC(0-t) (ng·h/mL)
State the answer as a number, implicitly in ng·h/mL.

Give the measured AUC(0-t) of Oc1c(-c2cc(C(F)(F)F)n[nH]2)ccc(C#CCCN2CCOCC2)c1-c1ccc(Cl)c(C(F)(F)F)c1 .
1400

###

Test system: PC-3
test name: Antiproliferative activity against human PC-3 cells assessed as inhibition of cell growth incubated for 72 hrs by MTT assay
Format: functional, cell-based
applied conditions: PC-3, 72 h
measured endpoint: IC50 (µM)
Your answer is read as µM, so omit the unit and give the number.

{"columns": ["molecule", "measured endpoint", "test result"],
 "data": [
  ["Oc1c(-c2cc(C(F)(F)F)n[nH]2)ccc(OCc2ccc(Cl)cc2)c1C#CCN1CCN(C2COC2)CC1", "IC50", 8.24],
  ["OCCCC#Cc1c(OCc2ccc(Cl)cc2)ccc(-c2cc(C(F)(F)F)n[nH]2)c1O", "IC50", 12.9],
  ["Oc1c(-c2cc(C(F)(F)F)n[nH]2)ccc(OCc2ccc(Cl)cc2)c1C#CCCN1CCC(O)CC1", "IC50", 6.07],
  ["Oc1c(-c2cc(C(F)(F)F)n[nH]2)ccc(OCc2ccc(Cl)cc2)c1C#CCN1CCOCC1", "IC50", 73.2],
  ["CN1CCN(CC#Cc2ccc(-c3cc(C(F)(F)F)n[nH]3)c(O)c2-c2ccc(Cl)c(C(F)(F)F)c2)CC1", "IC50", 4.13],
  ["Cn1nc(C(F)(F)F)cc1-c1ccc(C#CCN2CCOCC2)c(-c2ccc(Cl)c(C(F)(F)F)c2)c1O", "IC50", 58.5]
]}

Look up IC50 with PC-3 for this compound: CN1CCN(CC#Cc2c(OCc3ccc(Cl)cc3)ccc(-c3cc(C(F)(F)F)nn3C)c2O)CC1
16.6

###

test name: Half life in Sprague-Dawley rat at 2 mg/kg,iv administration by LC-MS/MS analysis
Assay type: ADME, organism-based
applied conditions: in vivo
measured endpoint: half-life
Just the number plus its unit, please.

For the molecule shown here, Oc1c(-c2cc(C(F)(F)F)n[nH]2)ccc(C#CCCN2CCOCC2)c1-c1ccc(Cl)c(C(F)(F)F)c1 , give the reported half-life.
3.22 h

###

Tested on: HCT-116
test name: Antiproliferative activity against human HCT-116 cells assessed as inhibition of cell growth incubated for 72 hrs by MTT assay
Assay type: functional, cell-based
applied conditions: HCT-116, 72 h
IC50 for assorted molecules
Unit µM implied. Number only.

{"columns": ["molecule", "unit symbol", "test result"],
 "data": [
  ["Oc1c(-c2cc(C(F)(F)F)n[nH]2)ccc(C#CCCN2CCOCC2)c1-c1ccc(Cl)c(C(F)(F)F)c1", "µM", 1.01]
]}

Shifting focus to the molecule that follows.
Need IC50 of Cn1nc(C(F)(F)F)cc1-c1ccc(OCc2ccc(Cl)cc2)c(-c2ccc(Cl)c(C(F)(F)F)c2)c1O , thanks.
1.37

###

System: PC-3
test name: Antiproliferative activity against human PC-3 cells assessed as inhibition of cell growth incubated for 72 hrs by MTT assay
Format: functional, cell-based
applied conditions: PC-3, 72 h
# Lookup of reported pIC50 keyed by entry
pIC50 field: float, defined as -log10 of concentration (mol/L).

Record request: pIC50 value, item CC(C)(O)CCC#Cc1ccc(-c2cc(C(F)(F)F)n[nH]2)c(O)c1-c1ccc(Cl)c(C(F)(F)F)c1
5.63

Record request: pIC50 value, item Oc1c(-c2cc(C(F)(F)F)n[nH]2)ccc(OCc2ccc(Cl)cc2)c1C#CCN1CCC(O)CC1
4.48

Name the reported pIC50 value associated with the compound Oc1c(-c2cc(C(F)(F)F)n[nH]2)ccc(OCc2ccc(Cl)cc2)c1C#CCN1CCCCC1
4.36

###

Tested on: MDA-MB-468
test name: Antiproliferative activity against human MDA-MB-468 cells assessed as inhibition of cell growth incubated for 72 hrs by MTT assay
Type: functional, cell-based
applied conditions: MDA-MB-468, 72 h
measured endpoint: IC50 (µM)
Give the value, in units of µM, as a plain number.

{"columns": ["molecule", "unit symbol", "IC50"],
 "data": [
  ["Cn1nc(C(F)(F)F)cc1-c1ccc(OCc2ccc(Cl)cc2)c(-c2ccc(Cl)c(C(F)(F)F)c2)c1O", "µM", 7.08]
]}

Find the recorded IC50 belonging to Oc1c(-c2cc(C(F)(F)F)n[nH]2)ccc(C#CCCN2CCOCC2)c1-c1ccc(Cl)c(C(F)(F)F)c1 and report it.
4.32

###

System: PC-3
test name: Antiproliferative activity against human PC-3 cells assessed as inhibition of cell growth incubated for 72 hrs by MTT assay
Type: functional, cell-based
applied conditions: PC-3, 72 h
pIC50: −log10 of the molar value.
We use 5 as the dividing line for pIC50: on or above the line is YES, below is NO.

The examples below pair each entry with its known result.
{"columns": ["molecule", "study target", "cat"],
 "data": [
  ["Cn1nc(C(F)(F)F)cc1-c1ccc(OCc2ccc(Cl)cc2)c(-c2ccc(Cl)c(C(F)(F)F)c2)c1O", "PC-3", "YES"],
  ["Oc1c(-c2cc(C(F)(F)F)n[nH]2)ccc(C#CCCN2CC3(COC3)C2)c1-c1ccc(Cl)c(C(F)(F)F)c1", "PC-3", "YES"],
  ["Cn1nc(C(F)(F)F)cc1-c1ccc(C#CCCC(C)(C)O)c(-c2ccc(Cl)c(C(F)(F)F)c2)c1O", "PC-3", "NO"]
]}

Is pIC50 for Cn1nc(C(F)(F)F)cc1-c1ccc(OCc2ccc(Cl)cc2)c(C#CCCCO)c1O at or above 5?
NO

In plain terms: is recorded pIC50 at least 5 for Oc1c(-c2cc(C(F)(F)F)n[nH]2)ccc(OCc2ccc(Cl)cc2)c1C#CCN1CC2(COC2)C1 ?
NO

Item Oc1c(-c2cc(C(F)(F)F)n[nH]2)ccc(OCc2ccc(Cl)cc2)c1C#CCN1CCC(N2CCOCC2)CC1 with pIC50 of 5 or above?
NO

###

test name: Cytotoxicity against human GES1 cells assessed as inhibition of cell growth incubated for 72 hrs by MTT assay
Assay type: toxicity, cell-based
measured endpoint: IC50 at 72 h

{"columns": ["molecule", "test result"],
 "data": [
  ["Cn1nc(C(F)(F)F)cc1-c1ccc(OCc2ccc(Cl)cc2)c(-c2ccc(Cl)c(C(F)(F)F)c2)c1O", "> 100 µM"]
]}

IC50 at 72 h for Oc1c(-c2cc(C(F)(F)F)n[nH]2)ccc(C#CCCN2CCOCC2)c1-c1ccc(Cl)c(C(F)(F)F)c1 ?
> 100 µM

###

Listed here are compounds together with their documented IC50.
Test system: PC-3
test name: Antiproliferative activity against human PC-3 cells assessed as inhibition of cell growth incubated for 72 hrs by MTT assay
Format: functional, cell-based
applied conditions: PC-3, 72 h
Numeric answer only, unit µM assumed.

{"columns": ["molecule", "IC50, µM"],
 "data": [
  ["Oc1c(-c2cc(C(F)(F)F)n[nH]2)ccc(C#CCCN2CCCCC2)c1-c1ccc(Cl)c(C(F)(F)F)c1", 3.38],
  ["Oc1c(-c2cc(C(F)(F)F)n[nH]2)ccc(C#CCCN2CCN(C3COC3)CC2)c1-c1ccc(Cl)c(C(F)(F)F)c1", 1.89]
]}

Shifting focus to the compound that follows.
Identify the measured IC50 of CC(C)(O)CCC#Cc1c(OCc2ccc(Cl)cc2)ccc(-c2cc(C(F)(F)F)n[nH]2)c1O for PC-3.
6.7
